targetUnderTest: LCK (Homo sapiens)
Sequence (P06239 whole entry): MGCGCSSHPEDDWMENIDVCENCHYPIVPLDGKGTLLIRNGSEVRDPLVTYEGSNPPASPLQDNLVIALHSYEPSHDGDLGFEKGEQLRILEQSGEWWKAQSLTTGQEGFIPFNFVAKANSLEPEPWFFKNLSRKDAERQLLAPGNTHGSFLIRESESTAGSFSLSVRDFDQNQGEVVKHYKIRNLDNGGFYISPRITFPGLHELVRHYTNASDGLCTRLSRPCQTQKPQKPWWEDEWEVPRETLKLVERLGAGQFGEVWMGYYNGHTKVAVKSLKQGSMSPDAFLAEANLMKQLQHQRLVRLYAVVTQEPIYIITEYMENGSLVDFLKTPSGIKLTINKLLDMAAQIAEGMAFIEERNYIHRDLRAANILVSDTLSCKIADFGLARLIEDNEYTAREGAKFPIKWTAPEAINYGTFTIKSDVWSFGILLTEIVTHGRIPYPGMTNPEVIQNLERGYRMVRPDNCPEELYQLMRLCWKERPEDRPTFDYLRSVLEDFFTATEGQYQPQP
observable: IC50

Task item: Returns the measured IC50 for the input compound. Input: C=CC(=O)Nc1cccc(Oc2nc(Nc3ccc(N4CCN(C)CC4)cc3)nc3ccoc23)c1
Reply: > 1000 nM

---

targetUnderTest: EGFR (Homo sapiens)
Sequence (P00533 25-1210): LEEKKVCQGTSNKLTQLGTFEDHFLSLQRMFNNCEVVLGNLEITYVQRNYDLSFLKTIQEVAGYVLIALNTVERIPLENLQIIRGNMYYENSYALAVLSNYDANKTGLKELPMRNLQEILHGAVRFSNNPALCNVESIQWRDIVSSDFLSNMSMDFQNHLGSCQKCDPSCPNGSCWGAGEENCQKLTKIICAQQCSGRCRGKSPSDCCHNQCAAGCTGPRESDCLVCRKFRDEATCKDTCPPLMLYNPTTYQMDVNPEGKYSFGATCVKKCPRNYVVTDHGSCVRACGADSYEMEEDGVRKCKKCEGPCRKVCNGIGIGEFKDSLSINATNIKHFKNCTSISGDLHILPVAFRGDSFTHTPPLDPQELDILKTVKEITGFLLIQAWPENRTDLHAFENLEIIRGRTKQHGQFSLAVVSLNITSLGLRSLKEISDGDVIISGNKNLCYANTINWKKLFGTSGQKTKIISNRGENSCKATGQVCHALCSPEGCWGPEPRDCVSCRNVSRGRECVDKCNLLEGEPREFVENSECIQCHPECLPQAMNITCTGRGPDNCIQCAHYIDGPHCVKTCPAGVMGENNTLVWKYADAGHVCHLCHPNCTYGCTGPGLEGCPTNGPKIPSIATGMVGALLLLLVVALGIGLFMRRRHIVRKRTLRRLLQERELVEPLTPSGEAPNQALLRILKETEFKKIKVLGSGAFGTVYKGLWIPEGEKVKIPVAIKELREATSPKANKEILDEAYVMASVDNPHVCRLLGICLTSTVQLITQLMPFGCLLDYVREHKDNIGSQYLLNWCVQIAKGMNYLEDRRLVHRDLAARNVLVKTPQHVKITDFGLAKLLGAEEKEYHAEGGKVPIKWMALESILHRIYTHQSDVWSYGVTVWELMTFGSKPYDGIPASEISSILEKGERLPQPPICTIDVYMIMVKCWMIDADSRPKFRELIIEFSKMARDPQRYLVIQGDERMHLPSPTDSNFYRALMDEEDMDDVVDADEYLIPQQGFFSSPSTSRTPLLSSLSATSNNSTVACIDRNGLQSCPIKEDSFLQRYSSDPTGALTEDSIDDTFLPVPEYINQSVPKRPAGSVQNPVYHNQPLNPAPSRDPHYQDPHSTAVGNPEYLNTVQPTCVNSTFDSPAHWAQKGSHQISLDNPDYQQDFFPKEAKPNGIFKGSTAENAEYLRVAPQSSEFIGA
methodSummary: Phosphorylation of EGFR in cells
Format: cell-based
Parameters: EGFR-overexpressing epidermoid carcinoma A431 cell line; endogenous in cells; host or cells: A431
statedConditions: cellular; read-out: IC50 on inhibiting EGFR phosphorylation
observable: IC50 (nM)
# output: bare number, implied unit nM

Task item: Returns the measured IC50 for the input molecule. Input: C=CC(=O)Nc1cccc(Oc2nc(Nc3ccc(N4CCN(C)CC4)cc3)nc3ccoc23)c1
Reply: 800
